- system: T1, SARS-CoV-2 S1 (aa16-685) (Wuhan) (SARS-CoV-2 Wuhan, UniProt P0DTC2 16-685)
- T1 construct: NRC; FLAG, 6xHis tags
- protocol.description: SPR, antigen on chip
Assign kon to each entry below.

*Q* Would you kindly share the measured kon for NRCoV2-20 VHH (VHH) VHH: EVQLQQSGGGLVQPGGSLRLSCAASGRTFSNYVVGWFRQAPQAPGKDHEFVAVISGSDTETYYADSVKGRFTISRDNAKNTVYLQMNSLKPEDTAVYYCAADRGMSYYYTRATEYYYWGQGTQVTVSS ?
*A* 1.96e+06 M⁻¹ s⁻¹

*Q* So what does the record say about kon for NRCoV2-03 VHH (VHH) VHH: EVQLVSSGGGLVQAGGSLRLSCTASGITFSYYAMGWYRQAPGQPRELVASMSNMDSTIYADSVKGRFTISRDNAKTTIYLQMNNLKPEDTAVYFCNIYGPTYSTRRNEYWGQGTQVTVSS ?
*A* 241000 M⁻¹ s⁻¹

*Q* Can you look up the measured kon of NRCoV2-05 VHH (VHH) VHH: EVKLVQSGGGLVQPGGSLRLSCAASGFIFSNYAMNWVRQAPGKGLEWVSGINSGGGDTRYADSVKGRFTVSRDNAKNTLYLQMNSLKPEDTGVYYCSKGPVSSYYGSGYDYRGQGTQVTVSS for me?
*A* 4.03e+06 M⁻¹ s⁻¹

Data origin, for the record: patent US20240270826A1
